# system_tested: Alpha-2C adrenergic receptor (Homo sapiens); note: assay procedure not described here
# Sequence (P18825 whole entry): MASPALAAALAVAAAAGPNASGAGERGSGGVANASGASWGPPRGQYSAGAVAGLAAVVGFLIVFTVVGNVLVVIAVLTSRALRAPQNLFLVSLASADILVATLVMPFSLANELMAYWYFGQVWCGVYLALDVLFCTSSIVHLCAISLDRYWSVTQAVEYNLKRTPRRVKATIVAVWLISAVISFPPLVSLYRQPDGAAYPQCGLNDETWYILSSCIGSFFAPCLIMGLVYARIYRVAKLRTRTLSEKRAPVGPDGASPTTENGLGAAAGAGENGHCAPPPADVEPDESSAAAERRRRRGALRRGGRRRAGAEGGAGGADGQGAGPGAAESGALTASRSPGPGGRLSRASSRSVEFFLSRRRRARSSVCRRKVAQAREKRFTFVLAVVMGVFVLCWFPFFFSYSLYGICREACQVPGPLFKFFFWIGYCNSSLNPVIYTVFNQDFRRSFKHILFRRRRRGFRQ
# Format: functional
quantity_name: AC50

Study these solved cases before continuing.
compound	AC50
CC(=O)OCC(=O)[C@@]1(O)CC[C@H]2[C@@H]3CCC4=CC(=O)CC[C@]4(C)[C@H]3C(=O)C[C@@]21C [CORTISONE ACETATE]	> 30 µM
O=C(CCCCC(=O)Nc1c(I)cc(I)c(C(=O)O)c1I)Nc1c(I)cc(I)c(C(=O)O)c1I [IODIPAMIDE]	> 10 µM
CC(C)(Oc1ccc(C2CC2(Cl)Cl)cc1)C(=O)O (stereo unspecified) [CIPROFIBRATE]	> 30 µM

Fill in: Alpha-2C adrenergic receptor (Homo sapiens) AC50 for CC(C)c1c(C(=O)Nc2ccccc2)c(-c2ccccc2)c(-c2ccc(F)cc2)n1CC[C@@H](O)C[C@@H](O)CC(=O)O [ATORVASTATIN] = > 10 µM

Fill in: Alpha-2C adrenergic receptor (Homo sapiens) AC50 for Cc1ccc(-c2nc3ccc(C)cn3c2CC(=O)N(C)C)cc1 [ZOLPIDEM] = > 30 µM

Fill in: Alpha-2C adrenergic receptor (Homo sapiens) AC50 for CCc1nn(CCCN2CCN(c3cccc(Cl)c3)CC2)c(=O)n1CCOc1ccccc1 [NEFAZODONE] = 0.63 µM

Fill in: Alpha-2C adrenergic receptor (Homo sapiens) AC50 for NS(=O)(=O)c1cc2c(cc1Cl)NCNS2(=O)=O [HYDROCHLOROTHIAZIDE] = > 10 µM

* * *

# system_tested: Synaptic vesicular amine transporter (Rattus norvegicus); note: assay procedure not described here
# Sequence (Q01827 whole entry): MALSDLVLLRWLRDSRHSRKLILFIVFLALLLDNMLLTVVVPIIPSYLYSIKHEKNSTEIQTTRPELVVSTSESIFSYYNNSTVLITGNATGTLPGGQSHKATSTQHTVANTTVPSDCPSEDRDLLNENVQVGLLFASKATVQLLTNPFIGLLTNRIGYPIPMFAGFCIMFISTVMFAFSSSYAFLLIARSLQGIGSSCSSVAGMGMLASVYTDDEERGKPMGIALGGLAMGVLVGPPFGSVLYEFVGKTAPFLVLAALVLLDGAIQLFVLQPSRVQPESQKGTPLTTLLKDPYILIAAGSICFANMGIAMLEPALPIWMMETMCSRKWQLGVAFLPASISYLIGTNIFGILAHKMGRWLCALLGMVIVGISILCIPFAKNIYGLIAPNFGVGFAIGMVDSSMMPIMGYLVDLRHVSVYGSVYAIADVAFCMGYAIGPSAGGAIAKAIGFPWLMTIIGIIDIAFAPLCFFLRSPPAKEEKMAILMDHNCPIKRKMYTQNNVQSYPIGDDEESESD
# Format: functional
Below, each entry is listed with its recorded AC50.

molecule	value
CC(O)CO (stereo not drawn)	> 30 µM

Just so you know, measured AC50 for "CS(=O)(=O)c1ccc([C@@H](O)[C@@H](CO)NC(=O)C(Cl)Cl)cc1" came out at > 30 µM

Just so you know, measured AC50 for CC(=O)OC[C@H]1O[C@@H](n2ccc(=O)[nH]c2=O)[C@H](OC(C)=O)[C@@H]1OC(C)=O [URIDINE TRIACETATE] came out at > 30 µM

* * *

So I've got AC50 readings for Growth hormone secretagogue receptor type 1 (Homo sapiens, UniProt Q92847), take a look.

molecule	value
Cc1c(O)c(=O)ccn1C	> 30 µM
Cc1ccc(-c2nc3ccc(C)cn3c2CC(=O)N(C)C)cc1	> 30 µM
N[C@@H](CSCC(=O)O)C(=O)O	> 30 µM
CCC(C(=O)O)c1ccc(CC(C)C)cc1 (centres undefined)	> 30 µM
CN1C(=O)CC(=O)N(c2ccccc2)c2cc(Cl)ccc21	> 10 µM
CN(CCCN1c2ccccc2CCc2ccccc21)CC(=O)c1ccc(Cl)cc1	25 µM
O=C(OCCN1CCOCC1)c1cccnc1Nc1cccc(C(F)(F)F)c1 [MORNIFLUMATE]	> 30 µM
CN1C(=O)CC(C)(c2ccccc2)C1=O (centres undefined) [METHSUXIMIDE]	> 10 µM

Fill in: Growth hormone secretagogue receptor type 1 (Homo sapiens, UniProt Q92847) AC50 for CN(CCOc1ccc(NS(C)(=O)=O)cc1)CCc1ccc(NS(C)(=O)=O)cc1 [DOFETILIDE] = > 30 µM

Fill in: Growth hormone secretagogue receptor type 1 (Homo sapiens, UniProt Q92847) AC50 for COC(=O)C1=C(C)NC(C)=C(C(=O)OCC(C)C)C1c1ccccc1[N+](=O)[O-] (centres undefined) = > 10 µM

Fill in: Growth hormone secretagogue receptor type 1 (Homo sapiens, UniProt Q92847) AC50 for "CS(=O)(=O)c1ccc([C@@H](O)[C@@H](CO)NC(=O)C(Cl)Cl)cc1" = > 30 µM

* * *

# system_tested: Mu-type opioid receptor (Homo sapiens, UniProt P35372); note: assay procedure not described here
# Sequence (P35372 whole entry): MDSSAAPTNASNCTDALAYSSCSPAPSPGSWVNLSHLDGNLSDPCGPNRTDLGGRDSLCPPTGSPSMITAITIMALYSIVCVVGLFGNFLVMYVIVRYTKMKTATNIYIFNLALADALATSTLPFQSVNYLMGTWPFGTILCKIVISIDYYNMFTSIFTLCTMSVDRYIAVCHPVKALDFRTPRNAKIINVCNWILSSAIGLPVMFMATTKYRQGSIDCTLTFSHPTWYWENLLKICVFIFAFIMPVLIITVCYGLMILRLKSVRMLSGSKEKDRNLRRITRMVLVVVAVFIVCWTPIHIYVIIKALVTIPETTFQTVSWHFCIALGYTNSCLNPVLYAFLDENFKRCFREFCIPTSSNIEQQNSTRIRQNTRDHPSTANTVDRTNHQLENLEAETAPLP
quantity_name: AC50

molecule	AC50
O=C(O)CCCN1CCC(O[C@@H](c2ccc(Cl)cc2)c2ccccn2)CC1 [BEPOTASTINE]	> 30 µM

Fill in: Mu-type opioid receptor (Homo sapiens, UniProt P35372) AC50 for CCOC(=O)CC(SP(=S)(OC)OC)C(=O)OCC (stereo not given) [MALATHION] = > 30 µM

Fill in: Mu-type opioid receptor (Homo sapiens, UniProt P35372) AC50 for NS(=O)(=O)c1cc2c(cc1Cl)NC(C1CC3C=CC1C3)NS2(=O)=O (stereo not given) [CYCLOTHIAZIDE] = > 30 µM

Fill in: Mu-type opioid receptor (Homo sapiens, UniProt P35372) AC50 for CC(C)OC(=O)[C@H](C)N[P@](=O)(OC[C@H]1O[C@@H](n2ccc(=O)[nH]c2=O)[C@](C)(F)[C@@H]1O)Oc1ccccc1 [SOFOSBUVIR] = > 30 µM

Fill in: Mu-type opioid receptor (Homo sapiens, UniProt P35372) AC50 for CCOC(=O)c1ccc(O)cc1 [ETHYLPARABEN] = > 30 µM

Fill in: Mu-type opioid receptor (Homo sapiens, UniProt P35372) AC50 for CC(=O)OC[C@H]1O[C@@H](n2ccc(=O)[nH]c2=O)[C@H](OC(C)=O)[C@@H]1OC(C)=O [URIDINE TRIACETATE] = > 30 µM

Fill in: Mu-type opioid receptor (Homo sapiens, UniProt P35372) AC50 for COc1cc2c(cc1OC)C(=O)C(CC1CCN(Cc3ccccc3)CC1)C2 (stereo not given) [DONEPEZIL] = > 30 µM

Fill in: Mu-type opioid receptor (Homo sapiens, UniProt P35372) AC50 for CN1C(=O)N(C)C2C1N(C)C(=O)N2C (stereo not given) [MEBICAR] = > 30 µM

Fill in: Mu-type opioid receptor (Homo sapiens, UniProt P35372) AC50 for COc1cc2c(cc1OC)[C@H]1C[C@@H](OC(=O)[C@@H](N)C(C)C)[C@H](CC(C)C)CN1CC2 [VALBENAZINE] = 21.6 µM

* * *

# system_tested: Muscarinic acetylcholine receptor M1 (Homo sapiens); note: assay procedure not described here
# Sequence (P11229 whole entry): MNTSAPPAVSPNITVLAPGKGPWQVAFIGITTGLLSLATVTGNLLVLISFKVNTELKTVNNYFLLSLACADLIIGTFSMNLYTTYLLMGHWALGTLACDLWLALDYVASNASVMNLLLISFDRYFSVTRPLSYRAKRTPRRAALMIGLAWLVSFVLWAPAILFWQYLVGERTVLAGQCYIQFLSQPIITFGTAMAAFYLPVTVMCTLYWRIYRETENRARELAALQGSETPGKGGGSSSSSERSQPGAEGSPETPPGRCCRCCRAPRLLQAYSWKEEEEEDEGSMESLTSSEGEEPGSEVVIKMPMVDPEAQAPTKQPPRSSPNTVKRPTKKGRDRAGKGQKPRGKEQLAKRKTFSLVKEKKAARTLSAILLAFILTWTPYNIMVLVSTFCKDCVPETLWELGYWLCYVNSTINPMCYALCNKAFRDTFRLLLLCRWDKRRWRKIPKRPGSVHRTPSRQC
# Assay type: functional, cell-based
quantity_name: AC50

Study these solved cases before continuing.
molecule	AC50
CCC1(c2cccc(O)c2)CCCCN(C)C1 (stereo unspecified)	> 30 µM
CCOC(=O)c1ccc(O)cc1	> 30 µM
COc1ccc(CCC(C)NCC(O)c2ccc(O)c([S+](C)[O-])c2)cc1 (stereo unspecified)	> 30 µM
CC(C)OC(=O)[C@H](C)N[P@](=O)(OC[C@H]1O[C@@H](n2ccc(=O)[nH]c2=O)[C@](C)(F)[C@@H]1O)Oc1ccccc1	> 30 µM
CC(C(=O)O)c1ccc2c(c1)Cc1cccnc1O2 (stereo unspecified)	> 30 µM

Note: attention shifts to another entry.
Just so you know, measured AC50 for CC(N/C(=N\C#N)Nc1ccncc1)C(C)(C)C (stereo unspecified) [PINACIDIL ANHYDROUS] came out at > 30 µM

* * *

# system_tested: Adenosine receptor A1 (Homo sapiens, UniProt P30542); note: assay procedure not described here
# Sequence (P30542 whole entry): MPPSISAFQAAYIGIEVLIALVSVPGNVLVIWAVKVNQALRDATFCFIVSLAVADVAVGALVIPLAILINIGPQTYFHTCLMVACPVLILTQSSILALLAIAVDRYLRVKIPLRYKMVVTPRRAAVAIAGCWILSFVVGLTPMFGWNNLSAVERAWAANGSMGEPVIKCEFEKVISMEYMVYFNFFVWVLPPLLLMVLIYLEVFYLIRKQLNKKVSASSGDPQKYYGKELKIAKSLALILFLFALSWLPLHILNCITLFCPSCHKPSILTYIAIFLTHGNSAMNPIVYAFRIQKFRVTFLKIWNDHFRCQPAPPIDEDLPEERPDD
quantity_name: AC50

Study these solved cases before continuing.
compound	AC50
CN1CCCN=C1COC(=O)C(O)(c1ccccc1)C1CCCCC1 (centres undefined)	> 10 µM
CC(N)Cc1ccccc1 (centres undefined)	18 µM
CCC1(C2=CCCCCC2)C(=O)NC(=O)NC1=O	> 10 µM
NC(CO)C(=O)NNCc1ccc(O)c(O)c1O (centres undefined) [BENSERAZIDE]	> 30 µM
CCCCCCCCOc1ccccc1C(=O)Nc1ccc(C(=O)OCC[N+](C)(CC)CC)cc1 [OTILONIUM BROMIDE]	> 30 µM

Fill in: Adenosine receptor A1 (Homo sapiens, UniProt P30542) AC50 for "CCCCCN(C)CCC(O)(P(=O)(O)O)P(=O)(O)O" = > 30 µM

Fill in: Adenosine receptor A1 (Homo sapiens, UniProt P30542) AC50 for "C[N+](C)(C)CCOC(N)=O" = > 10 µM

Fill in: Adenosine receptor A1 (Homo sapiens, UniProt P30542) AC50 for COC(=O)C1=C(C)NC(C)=C(C(=O)OC(C)C)C1c1cccc2nonc12 (centres undefined) = > 30 µM

Fill in: Adenosine receptor A1 (Homo sapiens, UniProt P30542) AC50 for COc1ccc(C(=O)NCc2ccc(OCCN(C)C)cc2)cc1OC [ITOPRIDE] = > 30 µM

* * *

Below, each entry is listed with its recorded AC50.
# system_tested: UniProt:Q08499
# Sequence (Q08499 whole entry): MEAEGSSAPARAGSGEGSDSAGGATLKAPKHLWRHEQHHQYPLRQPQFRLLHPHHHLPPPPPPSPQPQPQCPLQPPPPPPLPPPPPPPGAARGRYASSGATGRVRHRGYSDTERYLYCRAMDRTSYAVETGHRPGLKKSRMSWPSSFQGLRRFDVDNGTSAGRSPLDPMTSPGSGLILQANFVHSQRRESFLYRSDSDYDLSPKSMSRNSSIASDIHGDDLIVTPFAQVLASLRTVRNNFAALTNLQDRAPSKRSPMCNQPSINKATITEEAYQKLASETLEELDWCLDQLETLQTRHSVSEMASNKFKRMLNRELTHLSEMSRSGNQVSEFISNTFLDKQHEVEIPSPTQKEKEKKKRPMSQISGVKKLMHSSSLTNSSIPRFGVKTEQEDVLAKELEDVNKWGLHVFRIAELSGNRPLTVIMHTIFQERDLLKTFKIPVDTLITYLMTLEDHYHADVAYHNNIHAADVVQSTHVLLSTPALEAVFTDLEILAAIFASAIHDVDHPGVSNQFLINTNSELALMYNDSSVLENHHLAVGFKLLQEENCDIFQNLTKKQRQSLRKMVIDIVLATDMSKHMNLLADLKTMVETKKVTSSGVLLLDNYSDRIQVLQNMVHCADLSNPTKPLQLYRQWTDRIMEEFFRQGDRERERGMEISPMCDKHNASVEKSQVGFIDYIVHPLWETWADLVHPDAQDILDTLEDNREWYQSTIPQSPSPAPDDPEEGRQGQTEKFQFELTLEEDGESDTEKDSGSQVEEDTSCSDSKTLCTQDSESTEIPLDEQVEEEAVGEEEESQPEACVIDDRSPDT
# Format: functional

molecule	AC50
CN(C/C=C/c1ccccc1)Cc1cccc2ccccc12 [NAFTIFINE]	> 30 µM
Cc1cccc(C)c1OCC(C)N (stereo not drawn) [MEXILETINE]	> 30 µM
COc1c(N2CCNC(C)C2)c(F)cc2c(=O)c(C(=O)O)cn(C3CC3)c12 (stereo not drawn) [GATIFLOXACIN]	> 30 µM
NS(=O)(=O)c1cc2c(cc1Cl)NCNS2(=O)=O [HYDROCHLOROTHIAZIDE]	> 10 µM
N/N=c1/cc2c(n[nH]1)CCN(C(=O)c1ccccc1)C2 [ENDRALAZINE]	> 30 µM
CCOC(=O)[C@H](CCc1ccccc1)N[C@@H](C)C(=O)N1CCC[C@H]1C(=O)O	> 10 µM
OCc1cc([C@@H](O)CNCCCCCCOCCOCc2c(Cl)cccc2Cl)ccc1O [VILANTEROL]	18 µM
COc1ccccc1OCC(O)COC(N)=O (stereo not drawn) [METHOCARBAMOL]	> 30 µM
CC(=O)N[C@H]1[C@H]([C@H](O)[C@H](O)CO)OC(C(=O)O)=C[C@@H]1N=C(N)N [ZANAMIVIR]	> 30 µM
CCOC(=O)[C@H](CCc1ccccc1)N[C@H]1CCCN2CCC[C@@H](C(=O)O)N2C1=O [CILAZAPRIL]	> 30 µM

Just so you know, measured AC50 for COC(=O)C1=C(C)NC(C)=C(C(=O)OC(C)C)C1c1cccc2nonc12 (stereo not drawn) [ISRADIPINE] came out at 9 µM

Just so you know, measured AC50 for CN1C(=O)COc2c(C(=O)NC3CN4CCC3CC4)cc(Cl)cc21 (stereo not drawn) [AZASETRON] came out at 4.1 µM

Just so you know, measured AC50 for CCC1(C2=CCCCCC2)C(=O)NC(=O)NC1=O [HEPTABARBITAL] came out at > 30 µM
